target: UniProt P11309
pIC50: −log10 of the molar value.
Assay readout: pIC50

>>> print(df.to_string())
        smiles_entry  reported_measurement
0  O=C/C=C/c1ccccc1O                 ~5.52

Data origin: paper PMC4490130
